Source: patent US4237311A

# assay.overview: in vivo
# assay.context: mouse, iv, mice, killing 50% within 7 days, read-out: Acute toxicity LD50
# Description: ACUTE TOXICITY, BEHAVIOUR AND ANTICHOLINERGIC STUDY IN MICE The compounds were given by intravenous route to 6 mice. LD50 is the dose which kills 50% of the animals within 7 days. Seizures, gait, sedation and gripstrength were recorded.
readout.kind: LD50 at 168 h (mg/kg)
Entry rule: numbers only, all in mg/kg.

[in] # query: LD50 at 168 h of entry CC(N)C(=O)OC(C)(C)Cc1ccc(Cl)cc1.Cl (stereo not shown)
[out] 70
